- Test system: MEKK2 (MAP3K2) mutant PB1 domain binding to MEK5, human
- ASSAY: MEK5 binding signal on mutant MEKK2 PB1, primary screen, biochemical, multiplex bead flow cytometry, Alexa488-MEK5 (AID 1530)
- STATED_CONDITIONS: at 10 µM, hits give high values
Screen size: about 290,000 compounds; about 1,000 (0.34%) were called active. Only a selection was taken, and actives are over-represented in it overall.
PROPERTY_LABEL: percent response (%)
Give the value in % but do not write % after it.

Query: Please look at this compound and report its percent response: O=C(NCCCN1CCCCCC1)C1CC(=O)N(C2CCCC2)C1 (centres undefined)
Response: 31

Query: Please look at this compound and report its percent response: Cc1ccc([N+](=O)[O-])c(OCCCNCC(C)O)c1 (centres undefined)
Response: 7

Query: Please look at this compound and report its percent response: `COc1ccc(C=C(C#N)C#N)c(CSc2ccccn2)c1`
Response: 11

Query: Please look at this compound and report its percent response: `CC(C)(c1ccccc1)c1ccc(OCCN)cc1`
Response: 0

Query: Please look at this compound and report its percent response: `CCOc1ccc(Br)cc1CSC(=N)N`
Response: -1

Query: Please look at this compound and report its percent response: CCOC(=O)C1=C(CN2CCc3ccccc32)NC(=O)NC1c1cc(C)ccc1C (centres undefined)
Response: 5

Query: Please look at this compound and report its percent response: COc1cc2c(cc1OC)C(C)N(S(=O)(=O)c1cnc(Cl)c(Cl)c1)CC2 (centres undefined)
Response: 10

Query: Please look at this compound and report its percent response: `Cn1c(=NC(=O)CSCC(=O)N2CCOCC2)sc2ccccc21`
Response: 25

Query: Please look at this compound and report its percent response: Cc1cc(C)n(CC(O)COc2ccc(C(C)(C)C)cc2)n1 (centres undefined)
Response: -1

Query: Please look at this compound and report its percent response: `Cn1c(=NC(=O)c2cnccn2)sc2ccccc21`
Response: 10

Query: Please look at this compound and report its percent response: CN(C)CC(O)COc1ccc(C(C)(C)c2ccc(OCC(O)CN(C)C)cc2)cc1 (centres undefined)
Response: 33

Query: Please look at this compound and report its percent response: CCCc1cc(=O)[nH]c(SCC(=O)N2C(C)CCCC2C)n1 (centres undefined)
Response: 12

Query: Please look at this compound and report its percent response: `Cn1c(=NC(=O)CSCC(=O)N2CCCCC2)sc2ccccc21`
Response: 28

Query: Please look at this compound and report its percent response: `CCCC(=O)N1CCN(c2nnc(-c3ccc(C)cc3)c3ccccc23)CC1`
Response: 0

Query: Please look at this compound and report its percent response: CCCc1nnc(SCC(=O)N2C(C)CCCC2C)n1CC (centres undefined)
Response: 1490

Query: Please look at this compound and report its percent response: `CCOC(=O)N1CCN(Cc2nnc(-c3ccccc3Cl)o2)CC1`
Response: 8

Query: Please look at this compound and report its percent response: `Cc1ccc(NC(=O)CSCC(=O)N2CCOCC2)cc1`
Response: 3

Query: Please look at this compound and report its percent response: O=C(NCCc1ccc(Cl)cc1)C1CC(=O)N(C2CCCCC2)C1 (centres undefined)
Response: -5

Query: Please look at this compound and report its percent response: CC1CCCC(C)N1C(=O)CSc1nnnn1C1CCCC1 (centres undefined)
Response: -3

Query: Please look at this compound and report its percent response: `O=C(CP(=O)(c1ccccc1)c1ccccc1)N1CCOCC1`
Response: -5

Query: Please look at this compound and report its percent response: `c1ccc2c(CSCc3nc4ccccc4[nH]3)cccc2c1`
Response: 1

Query: Please look at this compound and report its percent response: Cc1nc(-c2ccccc2)sc1C1(C)CC(c2cccnc2)=NO1 (centres undefined)
Response: -3

Query: Please look at this compound and report its percent response: `N=C(N)SCc1cccc2ccccc12`
Response: 91

Query: Please look at this compound and report its percent response: COc1cc(C(C(=O)NC2CCCC2)N(C(=O)c2ccco2)c2ccccc2C(C)=O)cc(OC)c1OC (centres undefined)
Response: 6
